Tested on: Botulinum neurotoxin type F light chain protease (Clostridium botulinum)
Assay: Botulinum neurotoxin type F light chain protease inhibition, multiplex microsphere flow cytometry, validation set (AID 588459)
Conditions: multiplex microsphere protease substrate cleavage assay, at 10 µM, hits give high values
readoutName: inhibition (%)
All answers are understood in %, so give the number only.

Given CC(CCc1ccccc1)NCC(O)c1ccc(O)c(C(N)=O)c1 (stereo unspecified) , state its recorded inhibition.
-1

Reported inhibition for `Cc1ccc(C(=O)O)cc1NC(=O)c1cccs1` : what is it?
-1.2

Please look up its inhibition: CC1(C)CC(NCc2ccccc2)CCO1 (stereo unspecified)
9.4

For the compound `COc1ccc(OC)c(NC2=C(Cl)C(=O)N(Cc3ccccc3)C2=O)c1` , what inhibition is on record?
0

Given `C[C@H]1C[C@H]2[C@@H]3CCC4=CC(=O)C=C[C@]4(C)[C@@]3(Cl)[C@@H](O)C[C@]2(C)[C@@]1(O)C(=O)CO` , state its recorded inhibition.
4.5

Data request, read-out inhibition, for CN1CCCN(C(c2ccccc2)c2ccc(Cl)cc2)CC1 (stereo unspecified)
3.2

For the compound shown here, `NC(=O)c1ncn([C@@H]2O[C@H](CO)[C@@H](O)[C@H]2O)c1O` , give the reported inhibition.
-1.3

Which inhibition is reported for this compound? `CC(C)c1ccc2[nH]c3c(c2c1)CCCC3=O`
0.3

Reported inhibition, compound `C[C@H](NC(=O)C1(c2ccccc2)CCN(C(=O)[C@H]2CSCN2C(=O)OC(C)(C)C)CC1)C(=O)O` : ____
-0.9

So what's the measured inhibition for this one? `O=c1nc2n(c3c1oc1ccccc13)Cc1ccccc1-2`
2.1

Reported inhibition, compound `O=C1CCc2cc(OCCCCc3nnnn3C3CCCCC3)ccc2N1` : ____
-0.2

----------
I'd appreciate it if you could supply inhibition values for the items below.
Molecular target: Integrin beta-1 (Homo sapiens) + Integrin alpha-4 (Homo sapiens) (UniProt P13612+P05556)
Sequence (P05556 whole entry, looked up): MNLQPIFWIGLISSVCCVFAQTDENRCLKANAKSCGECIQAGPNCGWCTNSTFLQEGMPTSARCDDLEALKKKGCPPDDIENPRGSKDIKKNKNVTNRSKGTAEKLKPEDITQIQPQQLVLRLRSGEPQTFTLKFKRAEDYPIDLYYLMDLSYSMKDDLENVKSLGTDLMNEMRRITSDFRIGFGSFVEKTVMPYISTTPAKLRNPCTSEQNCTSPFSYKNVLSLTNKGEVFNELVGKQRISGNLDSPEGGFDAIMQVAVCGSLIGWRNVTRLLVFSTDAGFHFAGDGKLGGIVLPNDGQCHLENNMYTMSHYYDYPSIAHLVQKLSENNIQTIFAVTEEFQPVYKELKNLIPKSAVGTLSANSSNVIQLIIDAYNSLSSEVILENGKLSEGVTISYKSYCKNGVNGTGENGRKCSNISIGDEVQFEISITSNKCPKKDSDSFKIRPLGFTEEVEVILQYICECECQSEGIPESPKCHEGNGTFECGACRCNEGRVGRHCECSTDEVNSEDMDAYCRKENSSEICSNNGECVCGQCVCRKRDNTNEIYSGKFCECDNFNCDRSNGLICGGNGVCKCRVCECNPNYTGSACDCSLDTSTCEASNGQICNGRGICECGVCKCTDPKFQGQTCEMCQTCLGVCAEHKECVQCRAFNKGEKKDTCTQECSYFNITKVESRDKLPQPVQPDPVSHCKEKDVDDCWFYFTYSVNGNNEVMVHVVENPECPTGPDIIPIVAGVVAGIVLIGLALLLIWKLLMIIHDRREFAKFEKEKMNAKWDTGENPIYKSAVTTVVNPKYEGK
Sequence (P13612 whole entry, looked up): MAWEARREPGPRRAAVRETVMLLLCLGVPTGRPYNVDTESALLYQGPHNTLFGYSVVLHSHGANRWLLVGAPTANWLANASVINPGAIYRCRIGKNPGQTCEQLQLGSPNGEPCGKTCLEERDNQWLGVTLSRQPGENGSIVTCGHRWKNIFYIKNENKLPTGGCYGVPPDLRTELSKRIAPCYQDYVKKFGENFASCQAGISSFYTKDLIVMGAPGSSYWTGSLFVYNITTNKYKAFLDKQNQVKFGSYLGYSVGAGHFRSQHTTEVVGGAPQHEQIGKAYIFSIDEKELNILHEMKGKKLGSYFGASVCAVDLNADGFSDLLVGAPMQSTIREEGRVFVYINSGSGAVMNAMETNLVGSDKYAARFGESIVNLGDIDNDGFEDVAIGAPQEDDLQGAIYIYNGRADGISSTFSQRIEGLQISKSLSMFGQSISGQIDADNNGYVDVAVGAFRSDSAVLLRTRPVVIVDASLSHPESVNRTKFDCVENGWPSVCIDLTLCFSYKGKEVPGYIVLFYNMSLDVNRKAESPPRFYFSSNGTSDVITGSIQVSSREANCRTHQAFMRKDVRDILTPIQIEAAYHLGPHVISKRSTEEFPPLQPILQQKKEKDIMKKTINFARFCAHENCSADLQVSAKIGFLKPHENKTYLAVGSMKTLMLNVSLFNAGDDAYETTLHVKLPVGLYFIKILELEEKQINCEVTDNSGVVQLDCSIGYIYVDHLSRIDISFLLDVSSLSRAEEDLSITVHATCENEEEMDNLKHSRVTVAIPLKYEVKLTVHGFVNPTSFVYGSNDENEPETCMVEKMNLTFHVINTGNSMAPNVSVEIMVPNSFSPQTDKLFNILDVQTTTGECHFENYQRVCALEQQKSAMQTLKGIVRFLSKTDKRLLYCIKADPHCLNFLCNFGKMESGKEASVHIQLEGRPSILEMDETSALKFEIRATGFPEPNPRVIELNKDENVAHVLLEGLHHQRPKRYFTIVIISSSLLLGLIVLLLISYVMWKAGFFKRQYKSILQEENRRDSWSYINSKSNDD
Experiment: inhibition of HUTS-21 binding to VLA-4, pilot screen, VLA-4 allosteric modulator project, U937 cells, HUTS-21 mAb, flow cytometry, validation set (AID 2674);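 further: antibody binding induced by the VLA-4 ligand LDV present at three times its Kd; 0% = LDV ligand with antibody and no compound and 100% = antibody without LDV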
Settings: HUTS-21 LIBS mAb binding, at 6.7 µM, hits give high values
The response must be a number in % with no trailing unit.

For `Cn1c(O)c(C=NCCc2c[nH]c3ccccc23)c(=O)n(C)c1=O` , what is its reported inhibition?
5.03

Param item = `CC12CN3CC(C)(CN(C1)C31CCOCC1)C2=O` ; retrieve measured inhibition.
5.49

Data request, read-out inhibition, for `O=C1C(=O)c2ccccc2-c2ccccc21`
-0.43

Given `COc1cc(/C=C2\C(=O)NC(=O)N(c3ccccc3)C2=O)c([N+](=O)[O-])cc1OC` , state its recorded inhibition.
13.7

Record request: inhibition value, item `CCN(CC)CCOC(=O)C(O)(c1ccccc1)c1ccccc1`
2.93

Which inhibition reading was recorded for the compound `O=c1cccc2n1C[C@H]1C[C@@H]2CN2CCCC[C@@H]12` ?
-9.98

GET /values?readout=inhibition&item= C[C@]12CCC(=O)C=C1CCC1C2CC[C@@]2(C)C1CC[C@@]2(O)CC#N (some centres undefined)
12

State the recorded inhibition for this entry: `CCN(CC)C(=O)N[C@H]1C[C@@H]2c3cccc4[nH]cc(c34)C[C@H]2N(C)C1`
-11.9

inhibition for `C[C@H]1CC[C@@]2(C)[C@@H](CC[C@@H]3[C@@H]2CC[C@]2(C)[C@@H](O)CC[C@@H]32)C1` ?
6.4

I would be grateful if you could share the reported inhibition for COc1ccc(OC)c(C(O)C(C)N)c1 (centres undefined) .
7.85

Param item = `Cc1cc(Cl)ccc1OCC(=O)O` ; retrieve measured inhibition.
7.22

Report inhibition for CC12CCC3C(CC=C4CC(O)CCC43C)C1C/C(=C\c1cccc(F)c1)C2=O (centres undefined) please.
-7.08

For Clc1ccc(C2NCCc3[nH]cnc32)cc1 (centres undefined) , what is its reported inhibition?
-1.49

Look at this compound and give its reported inhibition. C#CCN(C)C(C)Cc1ccccc1 (centres undefined)
1.62

Any idea what its inhibition is? The compound is `CC(C)CCC1(CN2CCCC2=O)C(=O)NC(=O)NC1=O`
0.94

// inhibition lookup, key: `Cc1cccc(C)c1NC1=NCCCS1`
13.8

Need inhibition of CCOC(=O)c1cncn1C(C)c1ccccc1 (centres undefined) , thanks.
7.85

Suppose we examine the compound `COc1ccc(OC)c([C@@H](O)[C@H](C)NC(C)(C)C)c1` ; what inhibition value has been reported?
-6.45

Data request, read-out inhibition, for `CN1C(=O)CN=C(c2ccc(Cl)cc2)c2cc(Cl)ccc21`
9.92

Query (compound): `c1ccc(Cn2ccnc2)cc1` ; field requested: inhibition
14.7

Recorded inhibition for C[C@H]1CCC/C=C/C2C[C@H](O)CC2[C@H](O)/C=C/C(=O)O1 (some centres undefined) , please?
0.25

Which inhibition is listed for CC[C@]12C=CCN3CCC4(c5cc(Br)c(OC)cc5N(C)C4[C@@](O)(C(=O)OC)[C@@H]1OC(C)=O)C32 (some centres undefined) ?
29.7

Form field: reported inhibition of `OCc1cnc[nH]1`
11

inhibition lookup needed for CC12CN3CC(C)(CN(C1)C3c1cccnc1)C2=O (centres undefined) , thanks.
8.4

----------
Target: Lethal factor (Bacillus anthracis)
Assay: Lethal factor protease inhibitors, Bacillus anthracis, multiplex microsphere cleavage assay, validation set (AID 588461)
Settings: flow cytometry, at 10 µM, hits give high values
Give measured inhibition for each item. Keep answers brief.
# unit: % | format: bare number

Need inhibition, item CC12CC(c3ccccc3O1)C(C(=O)N1CCOCC1)C(=O)N2 (stereo unspecified)
-4.8

What inhibition value was documented for this compound, `Cc1ccc(NC(=O)CSc2nc(O)c(Cc3ccccc3)c(=O)n2-c2ccccc2)cc1` ?
2

Report inhibition for COC(=O)C1=NN(C(=O)c2cccc(Br)c2)C(O)(c2ccc(Cl)cc2)C1 (stereo unspecified) please.
1.2

Which inhibition reading was recorded for the compound `NNC(=O)c1ccc(Cl)cc1` ?
6.8

Which inhibition is reported for this compound? Cc1ccc(CN2CCN(CCCc3ccccc3)CC2CCO)cc1 (stereo unspecified)
-3.4

I have this compound here, `CC(=O)CSc1ncnc2c1cnn2-c1ccccc1` , and I need its recorded inhibition.
-1.6

Form field: reported inhibition of `CCN(Cc1cnn(C)c1)Cc1nc(C(c2ccccc2)c2ccccc2)no1`
-3.7

Suppose we examine the compound `C[C@H](NC(=O)NCCc1ccccc1)C(=O)O` ; what inhibition value has been reported?
-0.6

Look up inhibition: Cn1cc(C2N3CC4(C)CN2CC(C)(C3)C4=O)c2ccccc21 (stereo unspecified)
-10.2

Entry CCC1(c2ccccc2)NC(=S)N(c2ccc(C)c(C)c2)N1 (stereo unspecified) has what inhibition?
-3

Give its inhibition value. Item: `O=c1cc(-c2ccc3c(c2)OCCO3)oc2ccc(Cl)cc12`
0.9

----------
Can you tell me GFP response, % of DMSO for the items I'm about to list?
Assay: AGP1-GFP expression modulators, hit retest, confirmation, cell-based, flow cytometry, S. cerevisiae, cherry picks (AID 2273);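 further: median GFP channel fluorescence over the whole cell population gate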
Conditions: S. cerevisiae AGP1-GFP strain, 3 h, at 10 µM
Give the value, in units of %, as a plain number.

Recorded GFP response, % of DMSO for Cc1cccn2c(NCC3CCCO3)c(C(C)C)nc12 (stereo not drawn) , please?
105

Any idea what its GFP response, % of DMSO is? The molecule is `Cc1ccc(N2C(=O)NC(=O)/C(=C\c3cn(CC(=O)O)c4ccccc34)C2=O)cc1`
98.9

Using the record for `O=C1NC(=O)N(Cc2ccco2)C(=O)/C1=C/c1ccc(-c2cccc([N+](=O)[O-])c2)o1` , report its GFP response, % of DMSO.
90.9

----------
Kindly supply the reported inhibition values for the records listed here.
Tested on: Botulinum neurotoxin type F light chain protease (Clostridium botulinum)
Experiment: Botulinum neurotoxin type F light chain protease inhibition, multiplex microsphere flow cytometry, validation set (AID 588459)
Settings: multiplex microsphere protease substrate cleavage assay, at 10 µM, hits give high values
Please state the figure in %; there is no need to write the unit.

Form field: reported inhibition of C#CCN(C)C(C)Cc1ccccc1 (stereo unspecified)
-1

// lookup inhibition for `CC(=O)Oc1cc2oc(=O)cc(C)c2cc1OC(C)=O`
-1.8

Which inhibition is reported for this compound? CC1CCC[C@H](O)CCCCCc2cc(O)cc(O)c2C(=O)O1 (stereo partly specified)
-0.6

What measured inhibition goes with `O=C(NCCN1CCN(c2ccccc2)CC1)c1cccc(Br)c1` ?
-4.4

Field request: inhibition | item: `O=C(CCCN1CC=C(n2c(=O)[nH]c3ccccc32)CC1)c1ccc(F)cc1`
-1.3

Query (compound): `Fc1ccc(-n2cc(CNCCc3ccccn3)c(-c3ccccc3Cl)n2)cc1` ; field requested: inhibition
-1.9

Source of measurements: PubChem BioAssay
